Assay Target: human EP4 prostaglandin receptor (Homo sapiens, UniProt P35408)
Construct: expressed in transfected cells; host or cells: HEK-EBNA cells
Sequence (P35408 whole entry): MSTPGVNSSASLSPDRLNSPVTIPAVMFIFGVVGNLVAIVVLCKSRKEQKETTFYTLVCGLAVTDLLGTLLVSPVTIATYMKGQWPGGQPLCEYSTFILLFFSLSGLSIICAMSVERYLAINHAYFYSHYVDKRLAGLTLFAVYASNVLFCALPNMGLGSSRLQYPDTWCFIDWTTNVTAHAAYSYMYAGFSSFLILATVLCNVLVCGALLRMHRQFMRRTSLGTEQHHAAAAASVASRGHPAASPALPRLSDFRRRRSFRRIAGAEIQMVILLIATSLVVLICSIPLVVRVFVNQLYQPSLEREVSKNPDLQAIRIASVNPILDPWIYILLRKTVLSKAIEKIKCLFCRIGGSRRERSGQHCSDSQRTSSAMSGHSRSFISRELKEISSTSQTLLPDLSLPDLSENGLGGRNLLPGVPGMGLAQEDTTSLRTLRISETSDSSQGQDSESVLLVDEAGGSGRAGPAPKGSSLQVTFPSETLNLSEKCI
Method: Activity test measuring changes in intracellular cAMP in HEK-EBNA cells
Type: cell-based
Run Conditions: HEK-EBNA cells expressing human EP4, read-out: in vitro EC50 (concentration at 50% of maximal efficacy)
Endpoint: EC50

Q) EC50 lookup needed for CC1(C)C(=O)[C@H](C/C=C\CCCC(=O)O)[C@@H](/C=C/C(O)CCc2sc3ccccc3c2Cl)[C@@H]1O (stereo partly shown) , thanks.
A) 30 to 100 pM

* * *

Assay Target: human EP4 prostaglandin receptor (Homo sapiens)
Construct: expressed in transfected cells; host or cells: HEK-EBNA cells
Method: FLIPR Ca++ flux test
Format: cell-based
Run Conditions: cells expressing human EP4, read-out: in vitro EC50 (concentration at 50% of maximal efficacy)
pEC50: −log10 of the molar value.
Endpoint: pEC50

Q) Field request: pEC50 | item: CC1(C)C(=O)[C@H](C/C=C\CCCC(=O)O)[C@@H](/C=C/C(O)CCc2sc3ccccc3c2Cl)[C@@H]1O (stereo partly shown)
A) 10.00 to 10.52

Values from patent US20100081631A1
